test.system: full-length beta-Catenin (Uniprot ID P35222) (Homo sapiens, UniProt P35222)
Construct: 10 nM full-length beta-Catenin (Uniprot ID P35222)
Sequence (P35222 whole entry): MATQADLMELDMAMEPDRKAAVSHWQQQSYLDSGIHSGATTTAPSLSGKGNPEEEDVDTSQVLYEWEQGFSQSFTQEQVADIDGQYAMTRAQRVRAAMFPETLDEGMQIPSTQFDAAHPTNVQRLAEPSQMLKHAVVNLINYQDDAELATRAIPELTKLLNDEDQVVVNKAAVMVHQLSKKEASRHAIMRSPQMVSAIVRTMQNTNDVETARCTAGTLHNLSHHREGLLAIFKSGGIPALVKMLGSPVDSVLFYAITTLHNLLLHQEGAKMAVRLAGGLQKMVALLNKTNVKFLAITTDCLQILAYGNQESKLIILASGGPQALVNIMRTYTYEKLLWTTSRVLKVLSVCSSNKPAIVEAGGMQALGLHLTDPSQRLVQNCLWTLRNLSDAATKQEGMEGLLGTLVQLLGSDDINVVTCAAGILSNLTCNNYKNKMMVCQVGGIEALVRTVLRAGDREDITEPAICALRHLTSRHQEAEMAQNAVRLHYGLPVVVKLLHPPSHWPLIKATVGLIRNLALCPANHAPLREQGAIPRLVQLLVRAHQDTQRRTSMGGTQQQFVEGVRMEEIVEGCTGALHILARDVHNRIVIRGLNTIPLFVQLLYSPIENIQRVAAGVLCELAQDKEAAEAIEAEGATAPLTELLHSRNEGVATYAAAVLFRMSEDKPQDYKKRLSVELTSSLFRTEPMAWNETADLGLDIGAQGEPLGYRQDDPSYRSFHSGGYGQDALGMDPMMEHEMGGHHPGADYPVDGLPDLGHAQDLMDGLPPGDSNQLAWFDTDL
assay.comment: Fluorescence polarization IC50 (beta-catenin / 5FAM-TCF4 10-53 competition)
Format: binding
protocol.conditions: fluorescence polarization; read-out: beta-Catenin FP IC50
pIC50: −log10 of the molar value.
Use Y when the recorded pIC50 is no lower than 7; use N when it is lower.

Solved entries:
compound | category
CC(=O)N1CCC[C@]12CC=CCCCC1(CCCC=CCCCOC(=O)N3CC[C@@](C(=O)N[C@@H](Cc4ccsc4)C(=O)N[C@@H](Cc4csc5ccccc45)C(=O)N[C@@H](C)C(N)=O)(C3)NC(=O)[C@H](CC(C)C)NC(=O)[C@H](Cc3ccccc3)NC(=O)[C@H](C)NC(=O)[C@H](C)NC(=O)[C@H](CN(CC(=O)O)CC(F)(F)F)NC(=O)[C@H](CC(=O)O)NC1=O)NC(=O)[C@H](CC(C)(C)C)NC(=O)[C@H](CC(=O)O)NC2=O (stereo partly shown) | Y
CC(=O)N1CCC[C@]12CC=CCCCC1(CCCC=CCCCOC(=O)N3CC[C@@](C(=O)N[C@@H](Cc4ccccc4Cl)C(=O)N[C@@H](Cc4csc5ccccc45)C(=O)N[C@@H](CCC(N)=O)C(N)=O)(C3)NC(=O)[C@H](CO)NC(=O)[C@H](Cc3ccccc3)NC(=O)[C@H](C)NC(=O)[C@H](CC(C)C)NC(=O)[C@H](CC(=O)O)NC(=O)[C@H](CC(=O)O)NC1=O)NC(=O)[C@H](Cc1ccccc1)NC(=O)[C@H](CC(=O)O)NC2=O (stereo partly shown) | Y
CC(=O)N1CCC[C@]12CC=CCCCC1(CCCC=CCCCOC(=O)N3CC[C@@](C(=O)N[C@@H](Cc4ccccc4Cl)C(=O)N[C@@H](Cc4csc5ccccc45)C(=O)N[C@H](CO)[C@@H](C)O)(C3)NC(=O)[C@H]([C@@H](C)O)NC(=O)[C@H](Cc3ccccc3)NC(=O)[C@H](C)NC(=O)[C@H](C)NC(=O)[C@H](CC(=O)O)NC(=O)[C@H](CC(=O)O)NC1=O)NC(=O)[C@H](CC1CCCCC1)NC(=O)[C@H](CC(=O)O)NC2=O (stereo partly shown) | Y
CC(=O)N1CCC[C@]12CC=CCCCC1(CCCC=CCCCCOC(=O)N3CC(C(=O)N[C@@H](Cc4ccccc4C(F)(F)F)C(=O)N[C@@H](Cc4csc5ccccc45)C(=O)N[C@@H](CCC(N)=O)C(N)=O)(C3)NC(=O)[C@H](CC(C)C)NC(=O)[C@H](Cc3ccccc3)NC(=O)[C@H](C)NC(=O)C(C)(C)NC(=O)[C@H](Cc3cccc(C(=O)O)c3)NC(=O)[C@H](CC(=O)O)NC1=O)NC(=O)[C@H](CC(C)(C)C)NC(=O)[C@H](CC(=O)O)NC2=O (stereo partly shown) [I-2616] | N

stdin: Please check the record CC(=O)N1CCC[C@]12CC=CCCCC1(CCCC=CCCCCCC[C@@](C)(C(=O)N[C@@H](Cc3ccsc3)C(=O)N[C@@H](Cc3csc4ccccc34)C(N)=O)NC(=O)[C@H](CC(N)=O)NC(=O)[C@H](Cc3ccccc3)NC(=O)[C@H](C)NC(=O)[C@H](C)NC(=O)[C@H](CCC(=O)O)NC(=O)[C@H](CC(=O)O)NC1=O)NC(=O)[C@H](CC(C)(C)C)NC(=O)[C@H](CC(=O)O)NC2=O (stereo partly shown) [I-719] and state if its pIC50 is at or above 7.
stdout: Y

stdin: Answer whether pIC50 of CC(=O)N1CCC[C@]12CC=CCCCC1(CCCC=CCCCOC(=O)N3CC[C@@](C(=O)N[C@@H](Cc4ccsc4)C(=O)N[C@@H](Cc4csc5ccccc45)C(=O)N[C@@H](CCC(N)=O)C(N)=O)(C3)NC(=O)[C@H](CC(C)C)NC(=O)[C@H](Cc3ccccc3)NC(=O)[C@H](C)NC(=O)[C@H](C)NC(=O)[C@H](CC(=O)O)NC(=O)[C@H](CC(=O)O)NC1=O)NC(=O)[C@H](CO)NC(=O)[C@H](CC(=O)O)NC2=O (stereo partly shown) is greater than or equal to 7.
stdout: Y

stdin: Could you verify whether the entry CC(=O)N1CCC[C@]12CCCCCCC1(CCCCCCCCCC[C@@](C)(C(=O)N[C@@H](Cc3ccsc3)C(=O)N[C@@H](Cc3csc4ccccc34)C(=O)N[C@@H](CCC(N)=O)C(N)=O)NC(=O)[C@H](CC(N)=O)NC(=O)[C@H](Cc3ccccc3)NC(=O)[C@H](C)NC(=O)[C@H](C)NC(=O)[C@H](CC(=O)O)NC(=O)[C@H](CC(=O)O)NC1=O)NC(=O)[C@H](CC(C)(C)C)NC(=O)[C@H](CC(=O)O)NC2=O (stereo partly shown) shows pIC50 of no less than 7?
stdout: N

stdin: Does CC(=O)N1CCC[C@]12CC=CCCCC1(CCCC=CCCCOC(=O)N3CC[C@@](C(=O)N[C@@H](Cc4ccccc4Cl)C(=O)N[C@@H](Cc4csc5ccccc45)C(=O)N[C@@H](CCC(N)=O)C(N)=O)(C3)NC(=O)[C@H](CC(C)C)NC(=O)[C@H](Cc3ccccc3)NC(=O)[C@H](C)NC(=O)[C@H](C)NC(=O)[C@H]([C@@H](C)O)NC(=O)[C@H](CC(=O)O)NC1=O)NC(=O)[C@H](CC1CCCCC1)NC(=O)[C@H](CC(=O)O)NC2=O (stereo partly shown) have a reported pIC50 of at least 7?
stdout: N

stdin: // inclusive: pIC50 at least 7? input: CCCC[C@@H]1NC(=O)[C@H](C)NC(=O)[C@H](CCC(=O)O)NC(=O)[C@H](CC(=O)O)NC(=O)C2(CCCC=CCCCCCC[C@@](C)(C(=O)N[C@@H](Cc3ccccc3)C(=O)N[C@@H](Cc3csc4ccccc34)C(=O)N[C@@H](CCC(N)=O)C(N)=O)NC(=O)[C@H](CCC(N)=O)NC(=O)[C@H](Cc3ccccc3)NC1=O)CCCC=CC[C@]1(CCCN1C(C)=O)C(=O)N[C@@H](CC(=O)O)C(=O)N[C@@H]([C@@H](C)CC)C(=O)N2 (stereo partly shown) [I-666]
stdout: N

stdin: Does pIC50 meet or surpass 7 for CC(=O)N1CCC[C@]12CC=CCCCC1(CCCC=CCCCOC(=O)N3CC[C@@](C(=O)N[C@@H](Cc4ccccc4C(F)(F)F)C(=O)N[C@@H](Cc4cccc(Cl)c4)C(=O)N[C@@H](C)C(N)=O)(C3)NC(=O)[C@H](CC(C)C)NC(=O)[C@H](Cc3ccccc3)NC(=O)[C@H](C)NC(=O)[C@H](CCC(N)=O)NC(=O)[C@H](Cc3cccc(C(=O)O)c3)NC(=O)[C@H](CC(=O)O)NC1=O)NC(=O)[C@H](CC(C)(C)C)NC(=O)[C@H](CC(=O)O)NC2=O (stereo partly shown) ?
stdout: Y
